Target: human recombinant heparanase (h-hpa) (Homo sapiens)
Experiment: In vitro dimethylmethylene blue (DMB) assay for heparanase activity
MEASURED PARAMETER: IC50 (nM)

COMPOUND	IC50, nM
CCCCCCCCCCCCCCCCCC1=NN(c2nc3cc(C(=O)O)cc(C(=O)O)c3s2)C(=O)C1 [Compound 39]	2800
CCCCCCCCCCCCCCCCCCN1/C(=C/C=C/c2sc3ccccc3[n+]2CCCCCCCCCCCCCCCCCC)Sc2ccccc21 [Compound 67]	1500
CCCCCCCCCCCCCCCCCCN(C)c1ccc(C(=O)O)cc1NC(=O)c1cc(/N=N/c2cc(C(=O)OC)ccc2O)c2ccccc2c1O [Compound 62]	11600
CCCCCCCCCCCCCCCCCCOc1ccc(C(=O)O)cc1NC(=O)c1cc(Sc2nnnn2-c2ccccc2)c2ccccc2c1O [Compound 46]	7700
CCCCCCCCCCCCCCCCCCN(C)c1ccc(S(=O)(=O)O)cc1NC(=O)c1cc(/N=N/c2cccc(NS(C)(=O)=O)c2)c2ccccc2c1O [Compound 47]	250

P. CCCCCCCCCCCCCCCCCCN(C(=O)c1cc(Br)c2ccccc2c1O)c1cc(C(=O)O)cc(C(=O)O)c1 [Compound 43]
Q. CCCCCCCCCCCCCCCCCCOc1ccccc1C(=O)CC(=O)Nc1cc(NS(=O)(=O)c2cc(C(=O)O)cc(C(=O)O)c2)ccc1Cl [Compound 64]
Prompt: Would you kindly point out which of P and Q has the smaller IC50 figure? Please respond with the label that marks your chosen entry.
Completion: Q

a. CCCCCCCCCCCCCCCC(=O)OC[C@H](O)C1OC(=O)C(O)=C1O (stereo partly shown) [Compound 78]
b. CCCCCCCCCCCCCCCCCC1=NN(c2ccc(Oc3ccccc3)c(S(=O)(=O)O)c2)C(=O)C1/N=N/c1ccc(OC)cc1 (stereo not shown) [Compound 7]
Prompt: Name the one with the greater IC50 value, either a or b as given. Please respond with the label that marks your chosen entry.
Completion: a

----------
Target: human recombinant heparanase (h-hpa) (Homo sapiens)
Sequence (Q9Y251 158-543 limits assumed): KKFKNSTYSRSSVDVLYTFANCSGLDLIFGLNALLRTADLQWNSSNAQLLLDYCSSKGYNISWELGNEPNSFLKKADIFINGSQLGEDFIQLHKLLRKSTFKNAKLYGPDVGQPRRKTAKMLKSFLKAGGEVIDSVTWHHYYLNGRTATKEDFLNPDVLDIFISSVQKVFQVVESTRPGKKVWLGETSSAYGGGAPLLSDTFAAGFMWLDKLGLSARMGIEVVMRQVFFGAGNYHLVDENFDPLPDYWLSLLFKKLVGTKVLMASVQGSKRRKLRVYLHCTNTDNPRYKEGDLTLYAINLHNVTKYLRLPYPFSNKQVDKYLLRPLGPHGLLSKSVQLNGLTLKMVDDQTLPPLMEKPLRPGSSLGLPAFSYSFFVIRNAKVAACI
Sequence (Q9Y251 36-109 limits assumed): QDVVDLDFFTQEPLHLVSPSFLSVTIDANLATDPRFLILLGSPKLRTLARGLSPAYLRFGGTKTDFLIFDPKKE
Test: In vitro dimethylmethylene blue (DMB) assay for heparanase activity
pIC50: −log10 of the molar value.
MEASURED PARAMETER: pIC50

Completed entries (count: 5):
MOLECULE	MEASURED PARAMETER	QUANTITATIVE RESULT
CCCCCCCCCCCCCCCCCC1=NN(c2ccc(Oc3ccccc3)c(S(=O)(=O)O)c2)C(=O)C1Br (centres unmarked)	pIC50	6.60
CCCCCCCCCCCCCCCCCC1=NN(c2ccc(Oc3ccccc3)c(S(=O)(=O)O)c2)C(=O)C1/N=N/c1cc(OC)ccc1OC (centres unmarked)	pIC50	6.68
CCCCCCCCC(CCCCCCCC)C1=NN(c2cccc(S(=O)(=O)O)c2)C(=O)C1	pIC50	5.57
CCCCCCCCCCCC1OC1CCCCC(=O)Nc1cc(C(=O)O)ccc1Oc1cc(C(=O)O)cc(C(=O)O)c1 (centres unmarked)	pIC50	6.40
CCCCCCCCCCCCCCCCCC1=NN(c2ccc(Oc3ccccc3)c(S(=O)(=O)O)c2)C(=O)C1/N=N/c1ccc(S(=O)(=O)O)cc1 (centres unmarked)	pIC50	6.57

I. CCCCCCCCCCCCCCCCCCN(C)c1ccc(C(=O)O)cc1NC(=O)c1cc(/N=N/c2cc(C(=O)O)ccc2O)c2ccccc2c1O
II. CCCCCCCCCCCCCCCC[n+]1ccc(C=NO)cc1
Prompt: Name the one with the greater pIC50 value, either I or II as given. Please respond with the label that marks your chosen entry.
Completion: I
(I: 5.35, II: 4.77)

a. CCCCCCCCCCCCCCCCCC(=O)Nc1ccc(C(=O)CC(=O)Nc2cc(C(=O)O)ccc2Oc2cc(C(=O)O)cc(C(=O)O)c2)cc1
b. CCCCCCCCCCCCCCCCCC1=NN(c2ccc(Oc3ccccc3)c(S(=O)(=O)O)c2)C(=O)C1/N=N/c1ccc(NC(C)=O)cc1 (centres unmarked)
Prompt: Name the one with the greater pIC50 value, either a or b as given. Please respond with the label that marks your chosen entry.
Completion: b
(b: 6.89, a: 6.36)

----------
Target: human recombinant heparanase (h-hpa) (Homo sapiens)
Assay: In vitro dimethylmethylene blue (DMB) assay for heparanase activity
MEASURED PARAMETER: IC50 (nM)

COMPOUND	MEASURED PARAMETER	QUANTITATIVE RESULT
CCCCCCCCCCCCCCCCCCNC(=O)c1cc(S(=O)(=O)O)c2ccccc2c1O [Compound 72]	IC50	320

A. CCCCCCCCCCCCCCCc1ccc(OC(CC)C(=O)NCCCNC(=O)c2ccc3ccccc3c2O)cc1 (stereo not drawn) [Compound 31]
B. CCCCCCCCCCCCCCCCCC(=O)Nc1nn(-c2ccc(Oc3ccccc3)c(S(=O)(=O)O)c2)c(O)c1/N=N/c1c(C)nn(CCCCCCCCCC)c1C [Compound 32]
Prompt: Name the one with the greater IC50 value, either A or B as given. Please respond with the label that marks your chosen entry.
Completion: A
(A: 520 nM, B: 240 nM)

----------
Target: human recombinant heparanase (h-hpa) (Homo sapiens)
Sequence (Q9Y251 158-543 limits assumed): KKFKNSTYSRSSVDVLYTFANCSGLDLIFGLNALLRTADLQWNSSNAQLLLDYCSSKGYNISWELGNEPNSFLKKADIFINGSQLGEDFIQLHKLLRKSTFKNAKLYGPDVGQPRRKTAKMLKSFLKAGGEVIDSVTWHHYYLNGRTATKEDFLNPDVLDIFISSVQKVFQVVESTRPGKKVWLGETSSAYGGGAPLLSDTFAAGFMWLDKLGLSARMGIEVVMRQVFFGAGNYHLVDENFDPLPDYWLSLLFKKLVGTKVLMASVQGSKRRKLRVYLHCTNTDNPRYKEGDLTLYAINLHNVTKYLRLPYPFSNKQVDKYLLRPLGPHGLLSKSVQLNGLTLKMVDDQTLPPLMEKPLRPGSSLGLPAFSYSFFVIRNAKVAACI
Sequence (Q9Y251 36-109 limits assumed): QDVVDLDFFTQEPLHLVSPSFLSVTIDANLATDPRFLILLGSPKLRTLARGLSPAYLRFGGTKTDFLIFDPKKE
Test: In vitro dimethylmethylene blue (DMB) assay for heparanase activity
pIC50: −log10 of the molar value.
MEASURED PARAMETER: pIC50

Completed entries (count: 5):
MOLECULE	pIC50
CCCCCCCCCCCCCCCCCCN(C)c1ccc(S(=O)(=O)O)cc1NC(=O)c1cc(O)c2ccccc2c1 [Compound 77]	6.47
CCCCCCCCCCCCCCCCCCOc1ccc(S(=O)(=O)Nc2cccc(S(=O)(=O)N/N=C3\N(C)c4ccccc4C3(C)C)c2)cc1C(=O)O [Compound 59]	6.31
CCCCCCCCCCCCCCCCCCNC(=O)C1CC(=O)N(c2ccc(Oc3ccc(S(=O)(=O)O)cc3)cc2)C1 (stereo not shown) [Compound 103]	5.11
CCCCCCCCCCCC(Cl)C(O)CCCCC(=O)Nc1cc(C(=O)O)ccc1Oc1cc(C(=O)O)cc(C(=O)O)c1 (stereo not shown) [Compound 93]	5.04
CCCCCCCCCCCCCCCCOc1ccc(S(=O)(=O)O)cc1C(=O)O [Compound 88]	5.36

1. CCCCCCCCCCCCCCCCCCn1c(-c2ccc3ccccc3c2O)nc2cc(S(=O)(=O)O)ccc21 [Compound 42]
2. CCCCCCCCCCCCCCCCCCCCC1=NN(c2ccc(S(=O)(=O)O)cc2N)C(=O)C1 [Compound 14]
3. CCCCCCCCCCCCCCCCCC(=O)NC1=NN(c2ccc(Oc3ccccc3)c(S(=O)(=O)O)c2)C(=O)C1/N=N/c1cc(C(=O)O)c(O)cc1Cl (stereo not shown) [Compound 9]
4. CCCCCCCCCCNCC(O)Cn1c2ccc(Cl)cc2c2cc(Cl)ccc21 (stereo not shown) [Compound 68]
Prompt: Hey, quick one: sort these by pIC50, low to high? Your reply should list the labels following the order given in the request.
Completion: 4, 2, 1, 3
(4: 5.17, 2: 6.06, 1: 6.32, 3: 6.80)

a. CCCCCCCCCCCCCCCCCCN1/C(=C/C=C/c2oc3ccccc3[n+]2CCCCCCCCCCCCCCCCCC)Oc2ccccc21 [Compound 66]
b. CCCCCCCCCCCCCCCCCCN(C)c1ccc(S(=O)(=O)O)cc1NC(=O)c1cc(/N=N/c2ccc(NS(=O)(=O)c3ccc(C)cc3)cc2)c2ccccc2c1O [Compound 45]
Prompt: Name the one with the greater pIC50 value, either a or b as given. Please respond with the label that marks your chosen entry.
Completion: b

I. CCCCCCCCCCCCCCCCCC1=Nn2c(nc3c(C(=O)O)cc(S(=O)(=O)O)cc32)C1 [Compound 4]
II. CCCCCCCCCCCCC/C=C/CC(O)(C(=O)O)C(F)(F)F (stereo not shown) [Compound 97]
Prompt: Would you kindly point out which of I and II has the smaller pIC50 figure? Please respond with the label that marks your chosen entry.
Completion: II
(II: 5.22, I: 5.92)

1. CCCCCCCCCCCCCCCCCCNC(=O)C1CC(=O)N(c2ccc(Oc3ccc(Br)cc3)c(S(=O)(=O)O)c2)C1 (stereo not shown) [Compound 105]
2. CCCCCCCCCCCCCCCCCC1=NN(c2nc3ccc(S(=O)(=O)O)cc3[nH]2)C(=O)/C1=N\c1ccc(N(CC)CC)cc1 [Compound 38]
3. CCCCCCCCCCCCCCCCCC/C=C/c1cc(C(=O)O)c2oc3c(C(=O)O)cccc3c2c1 [Compound 90]
Prompt: Given 3 molecules, produce a descending ranking by pIC50. Your reply should list the labels following the order given in the request.
Completion: 1, 2, 3
(1: 6.07, 2: 5.84, 3: 5.07)
